Assay: Cmax in BALB/c mouse at 3 mg/kg, iv
Assay type: ADME, organism-based
Parameters: dose 3 mg/kg, route intravenous
Details: in vivo
property: Cmax (nM)
Please give a number only; it is taken to be in nM.

Ask: Sample `CN(C)C/C=C/C(=O)N1CCOc2cc3ncnc(Nc4ccc(F)c(Cl)c4)c3cc21` — what was its Cmax?
Reply: 290

* * *

Experiment: Tmax in BALB/c mouse at 3 mg/kg, iv
Assay type: ADME, organism-based
Set-up: dose 3 mg/kg, route intravenous
Details: in vivo
property: Tmax (min)
Report the figure in min without appending any unit label.

Ask: GET /values?readout=Tmax&item= `CN(C)C/C=C/C(=O)N1CCOc2cc3ncnc(Nc4ccc(F)c(Cl)c4)c3cc21`
Reply: 2

* * *

Assay: Cmax in BALB/c mouse at 10 mg/kg, po
Assay type: ADME, organism-based
Parameters: dose 10 mg/kg, route oral
Details: in vivo
property: Cmax (nM)
Report only the number, with the unit nM understood.

Ask: Query (compound): `CN(C)C/C=C/C(=O)N1CCOc2cc3ncnc(Nc4ccc(F)c(Cl)c4)c3cc21` ; field requested: Cmax
Reply: 360

* * *

Target: UniProt P11712
Sequence (P11712 whole entry): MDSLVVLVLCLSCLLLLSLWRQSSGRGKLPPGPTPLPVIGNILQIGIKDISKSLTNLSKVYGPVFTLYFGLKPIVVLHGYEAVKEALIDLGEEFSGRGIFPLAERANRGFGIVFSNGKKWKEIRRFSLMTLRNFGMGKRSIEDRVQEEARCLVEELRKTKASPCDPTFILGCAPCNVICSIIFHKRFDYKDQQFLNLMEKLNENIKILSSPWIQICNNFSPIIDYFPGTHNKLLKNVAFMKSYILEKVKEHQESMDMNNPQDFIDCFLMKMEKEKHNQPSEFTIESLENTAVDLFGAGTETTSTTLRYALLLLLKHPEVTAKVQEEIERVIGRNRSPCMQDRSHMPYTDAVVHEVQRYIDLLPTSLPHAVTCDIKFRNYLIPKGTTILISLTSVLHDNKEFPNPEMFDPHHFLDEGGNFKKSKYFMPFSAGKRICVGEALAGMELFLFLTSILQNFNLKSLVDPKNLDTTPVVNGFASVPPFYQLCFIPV
Assay: Inhibition of human recombinant CYP2C9 after 20 mins by LC/MS/MS analysis
pIC50: −log10 of the molar value.
property: pIC50

Ask: Which pIC50 reading was recorded for the compound `CN(C)C/C=C/C(=O)N1CCOc2cc3ncnc(Nc4ccc(F)c(Cl)c4)c3cc21` ?
Reply: < 5.00

Ask: Query (compound): `CN(C)C/C=C/C(=O)N1CCOc2cc3ncnc(Nc4ccc(OCc5cccc(F)c5)c(Cl)c4)c3cc21` ; field requested: pIC50
Reply: < 5.00

* * *

Some molecules, each annotated with its measured pIC50.
Target: Cytochrome P450 3A4 (Homo sapiens)
Sequence (P08684 whole entry): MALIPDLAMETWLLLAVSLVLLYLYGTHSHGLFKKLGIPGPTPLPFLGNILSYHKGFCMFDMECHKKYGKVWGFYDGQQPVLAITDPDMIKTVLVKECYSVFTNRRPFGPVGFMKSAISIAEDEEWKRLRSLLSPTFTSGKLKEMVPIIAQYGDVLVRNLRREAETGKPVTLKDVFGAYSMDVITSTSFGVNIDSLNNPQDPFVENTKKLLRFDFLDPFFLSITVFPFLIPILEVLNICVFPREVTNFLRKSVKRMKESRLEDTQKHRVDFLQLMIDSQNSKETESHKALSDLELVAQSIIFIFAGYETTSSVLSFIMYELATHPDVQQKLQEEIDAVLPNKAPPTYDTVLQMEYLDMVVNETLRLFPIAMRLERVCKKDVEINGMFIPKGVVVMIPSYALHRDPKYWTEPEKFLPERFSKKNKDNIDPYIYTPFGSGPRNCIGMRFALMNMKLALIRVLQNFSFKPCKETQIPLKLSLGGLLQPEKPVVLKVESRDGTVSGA
Assay: Inhibition of human recombinant CYP3A4 after 20 mins by LC/MS/MS analysis
pIC50: −log10 of the molar value.

INSERT INTO results (record_smiles, system, experimental_value) VALUES
  ('CN(C)C/C=C/C(=O)N1CCOc2cc3ncnc(Nc4ccc(OCc5cccc(F)c5)c(Cl)c4)c3cc21', 'Cytochrome P450 3A4 (Homo sapiens)', '< 5.00');

Consider the record given below.
Ask: Please report the recorded pIC50 for `CN(C)C/C=C/C(=O)N1CCOc2cc3ncnc(Nc4ccc(F)c(Cl)c4)c3cc21` .
Reply: < 5.00

* * *

Experiment: Tmax in BALB/c mouse at 10 mg/kg, po
Format: ADME, organism-based
Design: dose 10 mg/kg, route oral
Conditions: in vivo
property: Tmax

Ask: Fill blank: measured Tmax of the molecule `CN(C)C/C=C/C(=O)N1CCOc2cc3ncnc(Nc4ccc(F)c(Cl)c4)c3cc21` is ____.
Reply: 45 min

* * *

Assay: Half life in BALB/c mouse at 10 mg/kg, po
Type: ADME, organism-based
Set-up: dose 10 mg/kg, route oral
Conditions: in vivo
property: half-life (h)
Respond numerically; units are h and should not be typed.

Ask: What does the data say about its half-life? Entry: `CN(C)C/C=C/C(=O)N1CCOc2cc3ncnc(Nc4ccc(F)c(Cl)c4)c3cc21`
Reply: 9.13
